Target: T1, SA2-SCC1 complex (SA2 80-1060 in complex with SCC1 281-420) (human | , UniProt Q8N3U4;O60216)
T1 sequence 1: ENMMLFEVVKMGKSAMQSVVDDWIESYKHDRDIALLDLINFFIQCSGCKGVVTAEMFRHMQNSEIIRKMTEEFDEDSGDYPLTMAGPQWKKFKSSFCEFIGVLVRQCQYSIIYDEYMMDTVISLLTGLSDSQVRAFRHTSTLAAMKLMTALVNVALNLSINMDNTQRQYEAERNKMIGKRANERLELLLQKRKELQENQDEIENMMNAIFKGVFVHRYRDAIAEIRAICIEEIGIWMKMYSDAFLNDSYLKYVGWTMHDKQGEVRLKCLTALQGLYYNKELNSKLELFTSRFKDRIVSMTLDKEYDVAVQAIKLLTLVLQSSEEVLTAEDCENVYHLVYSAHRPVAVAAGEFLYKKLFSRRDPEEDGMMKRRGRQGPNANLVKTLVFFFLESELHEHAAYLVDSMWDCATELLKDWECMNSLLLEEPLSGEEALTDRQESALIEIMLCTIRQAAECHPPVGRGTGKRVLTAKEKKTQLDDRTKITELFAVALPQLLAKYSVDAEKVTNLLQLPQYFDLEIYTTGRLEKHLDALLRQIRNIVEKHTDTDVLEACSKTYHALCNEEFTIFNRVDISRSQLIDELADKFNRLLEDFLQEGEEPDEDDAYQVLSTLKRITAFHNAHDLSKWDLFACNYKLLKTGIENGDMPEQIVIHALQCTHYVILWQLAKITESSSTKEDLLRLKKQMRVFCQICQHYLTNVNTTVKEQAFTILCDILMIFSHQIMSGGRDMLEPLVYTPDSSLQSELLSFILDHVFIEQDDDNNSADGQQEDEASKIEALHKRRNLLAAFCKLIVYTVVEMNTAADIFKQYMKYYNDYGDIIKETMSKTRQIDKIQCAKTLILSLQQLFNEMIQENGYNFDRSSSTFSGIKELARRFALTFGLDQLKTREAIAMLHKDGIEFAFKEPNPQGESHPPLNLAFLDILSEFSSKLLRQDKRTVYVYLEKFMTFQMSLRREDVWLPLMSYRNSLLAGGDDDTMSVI
T1 sequence 2: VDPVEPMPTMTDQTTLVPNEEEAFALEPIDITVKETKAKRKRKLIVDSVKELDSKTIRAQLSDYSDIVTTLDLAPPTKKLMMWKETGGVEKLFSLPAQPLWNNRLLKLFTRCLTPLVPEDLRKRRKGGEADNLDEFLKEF
Assay: ITC
quantityMeasured: Kd (µM)

{"binder": "NYKIKYFGFDDLSESE [WAPL peptide 447-462 (third FGF motif only)]", "testValue": 78.7}

The measured values listed here are drawn from paper PMC7035113.
